- System: Caco-2
- method notes: Antiproliferative activity against human Caco2 cells after 48 hrs by MTT assay
- Type: functional, cell-based
- test parameters: Caco-2, 48 h
measurement name: pEC50
// pEC50: -log10(molar conc.)

Please report the measured pEC50 for O=[P@@]1(c2ccccc2)O[C@H](COCc2ccccc2)[C@@H](OCc2ccccc2)[C@H](OCc2ccccc2)[C@H]1O
4.24

* * *

- Test system: B16-F10
- method notes: Antiproliferative activity against mouse B16F10 cells after 48 hrs by MTT assay
- Assay type: functional, cell-based
- test parameters: B16-F10, 48 h
measurement name: pEC50
# pEC50 = -log10(concentration in molar units)

Give pEC50 for O=[P@@]1(c2ccccc2)O[C@H](COCc2ccccc2)[C@@H](OCc2ccccc2)[C@H](OCc2ccccc2)[C@H]1O tested on B16-F10.
5.31
